Attribution: the supplement of paper PMC10126150

Could you please report measured switch fluorescence ratio for the items listed next?
- System: ATP;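 further: ATP exposure 15 min at 22 °C before imaging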
- MEASUREMENT DESCRIPTION: switch fluorescence ratio, 500 uM ATP over buffer (Cy3 cluster intensity, sum of 5 cycles each) (fold (ratio)); higher = stronger signal-on switching upon ATP binding; sequences stand for … in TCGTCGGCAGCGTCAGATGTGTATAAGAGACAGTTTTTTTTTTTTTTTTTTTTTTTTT…TC
- RUN PARAMETERS: aptamer strand: ATP DNA aptamer (quencher-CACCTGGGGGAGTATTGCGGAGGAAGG + anchor), 100 nM annealed; ATP concentration: 500 uM
Respond using a number only.

Record lookup: for ATP, what switch fluorescence ratio belongs to `AGGTGCTACG` ?
1.03

Lab note: need switch fluorescence ratio with ATP for entry `AATCGATTCC` , please look it up.
1.04

Find the measured switch fluorescence ratio: item `ATGAAGGGGA` , target or system ATP.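 Further: ATP exposure 15 min at 22 °C before imaging.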
1

Return switch fluorescence ratio measured with ATP given this sequence: `AGATGTTAGG`
0.981

Lab note: need switch fluorescence ratio with ATP for entry `ATAATGGGGA` , please look it up.
1

Hello, I am looking for reported switch fluorescence ratio with ATP for `ATAGGGTACA` . Could you help?
1.11

What measured switch fluorescence ratio is associated with `TTAAAACTCA` on ATP?
1.04

Could you share what switch fluorescence ratio was measured for `CGAGGCGGAG` , tested on ATP?;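 further: ATP exposure 15 min at 22 °C before imaging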
1.01

Item: `AAGCTGGCTT` Test system: ATP Read-out: switch fluorescence ratio Value: ?;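 further: ATP exposure 15 min at 22 °C before imaging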
1.02

ATP / switch fluorescence ratio / `AGCTTCGTCT` : value?;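 further: ATP exposure 15 min at 22 °C before imaging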
1.04

Item: `GCTCTTTGAC` Test system: ATP Read-out: switch fluorescence ratio Value: ?;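 further: ATP exposure 15 min at 22 °C before imaging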
0.987

Please provide the recorded switch fluorescence ratio for `CACGGAGGAG` , tested on ATP.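 Further: ATP exposure 15 min at 22 °C before imaging.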
1.05

Any idea what switch fluorescence ratio came out for `CCGATTGTTG` on ATP?
1.02

Look up switch fluorescence ratio with ATP for this sequence: `TGTTGCCACG`
1

Lab request: please report switch fluorescence ratio under test system ATP for `TCAATGGGTA`;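 further: ATP exposure 15 min at 22 °C before imaging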
0.991

Record lookup: for ATP, what switch fluorescence ratio belongs to `GCGTTAAGCA` ?
0.968

Item `TTGTATATGG` with ATP - switch fluorescence ratio?
1.05

// fetch ATP switch fluorescence ratio for `TGGTTATAAT`
0.992

Return switch fluorescence ratio measured with ATP given this sequence: `CGGTGGGATG`
0.978

Form entry - test system: ATP; read-out: switch fluorescence ratio; sequence: `CAGGAACTGT`;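 further: ATP exposure 15 min at 22 °C before imaging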
0.985

Lab note: need switch fluorescence ratio for `GAATAGGTAT` on ATP, anyone have it?
0.995

Can you look up switch fluorescence ratio on ATP for `GATTAAAGTT` ?
1.02

Item `AGAGGAGTGC` with ATP - switch fluorescence ratio?
0.958

For the record `ATTCTGGGGA` , what value of switch fluorescence ratio is listed for ATP?
0.988

Entry `GAAACTTGCA` , system ATP: what switch fluorescence ratio was measured?;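 further: ATP exposure 15 min at 22 °C before imaging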
1.08

Could you share what switch fluorescence ratio was measured for `GGTGCCTGAG` , tested on ATP?;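 further: ATP exposure 15 min at 22 °C before imaging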
1.06

Kindly state the measured switch fluorescence ratio obtained for `TTCCGGAGGC` with ATP.
1.22

What is its switch fluorescence ratio for ATP? Entry: `GGGTATTGTG`
0.994

Missing value: switch fluorescence ratio, ATP, entry `AATTCTAATA` . Fill in?
1

Reported switch fluorescence ratio for ATP, given `CCACAGTAAT` ?
4.75

# returns recorded switch fluorescence ratio (system: ATP) for `GCAAAATAAA`;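 further: ATP exposure 15 min at 22 °C before imaging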
1.05

What switch fluorescence ratio appears in the records for this sequence with ATP? `CGGGGTTCTT`
1.02

Write down the reported switch fluorescence ratio of `ATATTTGGCG` , test system: ATP.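 Further: ATP exposure 15 min at 22 °C before imaging.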
1.01

Request: switch fluorescence ratio, test system ATP, entry `AAGTAGTAGT`;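 further: ATP exposure 15 min at 22 °C before imaging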
1.01

What measured switch fluorescence ratio is associated with `AGTGTGCGTG` on ATP?
0.981

What reported switch fluorescence ratio corresponds to `CTAACGAGGG` on ATP?
0.973

Provide value of switch fluorescence ratio for this record tested with ATP: `TTGGCCGGAG`
1

Query the reported switch fluorescence ratio for ATP; item: `GGGAGTAGCG`
0.997

Kindly state the measured switch fluorescence ratio obtained for `GACGGGGTAG` with ATP.
1

Recall the recorded switch fluorescence ratio for `CATCGCATTT` with ATP and state it.
2.32

Recorded switch fluorescence ratio for `GATCGGGGGA` with ATP, please?
1.02

Find switch fluorescence ratio (ATP) for the entry `AAATTGCTAG`
0.997

Which switch fluorescence ratio is reported with ATP for this entry: `CTGGGATATA` ?
1

Lab note: need switch fluorescence ratio for `AGGCGGCGG` on ATP, anyone have it?
0.975

Field: switch fluorescence ratio (ATP). Entry: `TGTGTACCGG`
1.01

Item: `CGGAGGTATA` Test system: ATP Read-out: switch fluorescence ratio Value: ?;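 further: ATP exposure 15 min at 22 °C before imaging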
1.14

Can you look up switch fluorescence ratio on ATP for `TTGTGCGAGA` ?
0.989

Given the entry `AAGCTGGTAC` , what switch fluorescence ratio was observed with ATP?
1.99

Reported switch fluorescence ratio for ATP, given `AGTCAGGTT` ?
1.02

Which switch fluorescence ratio is reported with ATP for this entry: `AGTTGGTCCT` ?
1.01

Give the reported switch fluorescence ratio for `TATAGTGTAA` (system: ATP).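 Further: ATP exposure 15 min at 22 °C before imaging.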
1.01

Requested read-out switch fluorescence ratio, target or system ATP, entry `TGCGGCCGGG`;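 further: ATP exposure 15 min at 22 °C before imaging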
1.01

Record lookup: for ATP, what switch fluorescence ratio belongs to `GTTAAAAAGA` ?
1.08

Tell me reported switch fluorescence ratio for `GGTTCAAGGA` , tested with ATP.
0.99

// lookup switch fluorescence ratio | system=ATP | key= `GACGGGAAAA`;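 further: ATP exposure 15 min at 22 °C before imaging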
1.07

// fetch ATP switch fluorescence ratio for `GATTTAAACA`
1.02

Query for ATP: what switch fluorescence ratio does the record show for `TTCGTTGTGG` ?
1.03

Record `AGCGGAGTGA` : what is its switch fluorescence ratio with ATP?
1.01

What reported switch fluorescence ratio corresponds to `GCTTTCTCGG` on ATP?
1.08

I'm curious: which switch fluorescence ratio was measured for `AGCTTCTAAC` tested on ATP?;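 further: ATP exposure 15 min at 22 °C before imaging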
1.03

Lab note: need switch fluorescence ratio for `TTACTTTTGC` on ATP, anyone have it?
1.01

// map `CGGATTAATT` to recorded switch fluorescence ratio (system: ATP);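 further: ATP exposure 15 min at 22 °C before imaging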
0.986

Recorded switch fluorescence ratio for `CACGCGTGGT` with ATP, please?
0.996

So what switch fluorescence ratio did `ATTTTGGCGT` get with ATP?
0.982

Give ATP switch fluorescence ratio for `TGATGGGGTC`
0.991

# query: switch fluorescence ratio | item `TTTGCTACGG` | system: ATP;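 further: ATP exposure 15 min at 22 °C before imaging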
1.05

For ATP, provide switch fluorescence ratio of `TACGGCGCGA` please.
1.39

Notebook entry, ATP assay: switch fluorescence ratio of `GGACACTCTG` = ?
0.977

Give switch fluorescence ratio (ATP) of the following sequence: `CAAGGTACGA`
1.02

Fill in the recorded switch fluorescence ratio for this sequence, with ATP as test system: `AGCATATATG`
1.02

Query switch fluorescence ratio on ATP for `GGGAAGTCTG`
0.955

What is its switch fluorescence ratio for ATP? Entry: `TATGAGAAGC`
1

Form field: switch fluorescence ratio recorded for `TCACATTTTA` with ATP (enter value)
0.995

Provide the documented switch fluorescence ratio with ATP as the system for `AAGGGACGGG`
1.01

Record lookup: for ATP, what switch fluorescence ratio belongs to `TCGGGGGGCC` ?
1.02

# get_value(readout= switch fluorescence ratio, system= ATP) for `GACGAAGGT`;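 further: ATP exposure 15 min at 22 °C before imaging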
1.01

For the record `TTCGGGCGCG` , what value of switch fluorescence ratio is listed for ATP?
0.952

Any idea what switch fluorescence ratio came out for `AGGCGGGGGC` on ATP?
1.03

GET /values?readout=switch fluorescence ratio&system=ATP&item= `CGGTGTGTGC`;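 further: ATP exposure 15 min at 22 °C before imaging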
1.04

Param readout= switch fluorescence ratio; system= ATP; entry= `GGGCATTGAA` ; returns value.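 Further: ATP exposure 15 min at 22 °C before imaging.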
0.99

// lookup switch fluorescence ratio | system=ATP | key= `AATTATCTGT`;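 further: ATP exposure 15 min at 22 °C before imaging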
0.979

Entry `TGGCAGAAGG` , system ATP: what switch fluorescence ratio was measured?;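 further: ATP exposure 15 min at 22 °C before imaging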
1.06

Report switch fluorescence ratio for `ACGGGGGAGC` tested on ATP.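 Further: ATP exposure 15 min at 22 °C before imaging.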
1.03

Request: switch fluorescence ratio, test system ATP, entry `GGGTTAATGG`;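 further: ATP exposure 15 min at 22 °C before imaging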
0.986

Checklist item: switch fluorescence ratio tested on ATP, entry `GGGTAGGCTT` , value?;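 further: ATP exposure 15 min at 22 °C before imaging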
0.965

Enter reported switch fluorescence ratio observed with ATP for `AAAAGGGGCG`
1

---

Would you mind telling me the reported switch fluorescence ratio of each entry?
- Tested on: ATP;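 further: ATP exposure 15 min at 22 °C before imaging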
- MEASUREMENT DESCRIPTION: switch fluorescence ratio, 500 uM ATP over buffer (Cy3 cluster intensity, sum of 5 cycles each) (fold (ratio)); higher = stronger signal-on switching upon ATP binding; sequences stand for … in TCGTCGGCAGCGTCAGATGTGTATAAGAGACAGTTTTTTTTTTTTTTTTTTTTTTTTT…TC
- RUN PARAMETERS: aptamer strand: ATP DNA aptamer (quencher-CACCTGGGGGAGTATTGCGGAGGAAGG + anchor), 100 nM annealed; ATP concentration: 500 uM
I'd appreciate a reply containing only the number, no unit.

Form: Entry = `AGAGTGGTTA` | System = ATP | switch fluorescence ratio = ____;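 further: ATP exposure 15 min at 22 °C before imaging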
0.986

Any idea what switch fluorescence ratio came out for `TTTGCGGGAT` on ATP?
1.03

What value of switch fluorescence ratio on ATP does `GAAAATTGCC` have?
0.978

Test system ATP; read-out switch fluorescence ratio; what value for `GTCATCAGGT` ?;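 further: ATP exposure 15 min at 22 °C before imaging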
1.01

Item `AACGGGCTAG` with ATP - switch fluorescence ratio?
0.999

What reported switch fluorescence ratio corresponds to `TTGTGTAGTC` on ATP?
1

Find switch fluorescence ratio (ATP) for the entry `GTTTGTGTCA`
0.993

Give recorded switch fluorescence ratio with ATP for the following sequence: `GCTGTAAGGG`
0.988

Notebook entry, ATP assay: switch fluorescence ratio of `GGCCGGATAG` = ?
1.03

# value lookup — system ATP, readout switch fluorescence ratio, item `TGTTATTTTT`;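 further: ATP exposure 15 min at 22 °C before imaging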
1
